Tested on: SLVL (B-Cell Non-Hodgkin's Lymphoma);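 also: after 72 h of two-drug dosing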
Assay: Bliss excess, mean over the matrix (fraction); higher = more synergy
reported-property: Bliss excess

compound	system-tested	reported-property	observed
C=CCn1c(=O)c2cnc(Nc3ccc(N4CCN(C)CC4)cc3)nc2n1-c1cccc(C(C)(C)O)n1 [AZD1775] + C[C@@H]1COCCN1C2=NC(=NC(=C2)C3(CC3)[S@](=N)(=O)C)C4=C5C=CNC5=NC=C4 [AZD6738] (first compound max 1 µM, partner max 10 µM)	SLVL (B-Cell Non-Hodgkin's Lymphoma)	Bliss excess	-0.0105
Cc1c2c(nn1C)CSCc1cc(n(C)n1)CSc1cc(c3ccccc3c1)OCCCc1c(C(=O)O)n(C)c3c-2c(Cl)ccc13 [AZD5991] + CS(=O)(=O)CCNCc1ccc(-c2ccc3ncnc(Nc4ccc(OCc5cccc(F)c5)c(Cl)c4)c3c2)o1 [Lapatinib] (first compound max 1 µM, 7x7, partner max 10 µM)	SLVL (B-Cell Non-Hodgkin's Lymphoma)	Bliss excess	0.0502
C[C@@H](Oc1cc(-c2cnn(C3CCNCC3)c2)cnc1N)c1c(Cl)ccc(F)c1Cl [Crizotinib] + CC1=C(C(=CC=C1)Cl)NC(=O)C2=CN=C(S2)NC3=CC(=NC(=N3)C)N4CCN(CC4)CCO [Dasatinib] (first compound max 10 µM, 7x7, partner max 2 µM)	SLVL (B-Cell Non-Hodgkin's Lymphoma)	Bliss excess	0.0167
Cc1c2c(nn1C)CSCc1cc(n(C)n1)CSc1cc(c3ccccc3c1)OCCCc1c(C(=O)O)n(C)c3c-2c(Cl)ccc13 [AZD5991] + C1CN(CCC1(C(=O)N[C@@H](CCO)C2=CC=C(C=C2)Cl)N)C3=NC=NC4=C3C=CN4 [Capivasertib] (first compound max 1 µM, 7x7, partner max 3 µM)	SLVL (B-Cell Non-Hodgkin's Lymphoma)	Bliss excess	0.004
Cc1cc2ncnn2cc1Nc1ncc2c(n1)n(C1CCOCC1)c(=O)n2C [AZD7648] + COc1cc([C@@H]2c3cc4c(cc3[C@@H](O[C@@H]3O[C@@H]5CO[C@@H](C)O[C@H]5[C@H](O)[C@H]3O)[C@H]3COC(=O)[C@H]23)OCO4)cc(OC)c1O [Etoposide] (first compound max 10 µM, 7x7, partner max 10 µM)	SLVL (B-Cell Non-Hodgkin's Lymphoma)	Bliss excess	0.0824
CCN(CCO)CCCOc1ccc2c(Nc3cc(CC(=O)Nc4cccc(F)c4)[nH]n3)ncnc2c1 [AZD2811] + C=CCn1c(=O)c2cnc(Nc3ccc(N4CCN(C)CC4)cc3)nc2n1-c1cccc(C(C)(C)O)n1 [AZD1775] (first compound max 1 µM, partner max 1 µM)	SLVL (B-Cell Non-Hodgkin's Lymphoma)	Bliss excess	-0.04
C[C@@H](Nc1cc(F)cc(F)c1)c1cc(C(=O)N(C)C)cc2c(=O)cc(N3CCOCC3)oc12 [AZD8186] + CC(=O)c1c(C)c2cnc(Nc3ccc(N4CCNCC4)cn3)nc2n(C2CCCC2)c1=O [Palbociclib] (first compound max 10 µM, 7x7, partner max 10 µM)	SLVL (B-Cell Non-Hodgkin's Lymphoma)	Bliss excess	0.0035
Cc1c2c(nn1C)CSCc1cc(n(C)n1)CSc1cc(c3ccccc3c1)OCCCc1c(C(=O)O)n(C)c3c-2c(Cl)ccc13 [AZD5991] + Cc1cc2ncnn2cc1Nc1ncc2c(n1)n(C1CCOCC1)c(=O)n2C [AZD7648] (first compound max 1 µM, 7x7, partner max 10 µM)	SLVL (B-Cell Non-Hodgkin's Lymphoma)	Bliss excess	0.0016
COc1nnc2ccc(N3CCC(c4ccc(OCCN5CCN(C)C(=O)[C@H]5C)cc4)CC3)nn12 [AZD5153] + C[C@@H]1COCCN1C2=NC(=NC(=C2)C3(CC3)[S@](=N)(=O)C)C4=C5C=CNC5=NC=C4 [AZD6738] (first compound max 1 µM, 7x7, partner max 10 µM)	SLVL (B-Cell Non-Hodgkin's Lymphoma)	Bliss excess	-0.13
C[C@@H]1COCCN1c1cc(C2([S@](C)(=N)=O)CC2)nc(-c2ccnc3[nH]ccc23)n1 [AZD6738] + Nc1ccn([C@@H]2O[C@H](CO)[C@@H](O)C2(F)F)c(=O)n1 [Gemcitabine] (first compound max 10 µM, 7x7, partner max 0.3 µM)	SLVL (B-Cell Non-Hodgkin's Lymphoma)	Bliss excess	-0.0284
Cn1cnc2c(F)c(Nc3ccc(Br)cc3Cl)c(C(=O)NOCCO)cc21 [Selumetinib] + CCN(CCO)CCCOc1ccc2c(Nc3cc(CC(=O)Nc4cccc(F)c4)[nH]n3)ncnc2c1 [AZD2811] (first compound max 10 µM, 7x7, partner max 1 µM)	SLVL (B-Cell Non-Hodgkin's Lymphoma)	Bliss excess	-0.0465
CCN(CCO)CCCOc1ccc2c(Nc3cc(CC(=O)Nc4cccc(F)c4)[nH]n3)ncnc2c1 [AZD2811] + O=C(c1cc(Cc2n[nH]c(=O)c3ccccc23)ccc1F)N1CCN(C(=O)C2CC2)CC1 [Olaparib] (first compound max 1 µM, 7x7, partner max 10 µM)	SLVL (B-Cell Non-Hodgkin's Lymphoma)	Bliss excess	-0.001
COc1cccc(OCCCN)c1-c1cc(Nc2cnc(C#N)cn2)n[nH]1 [Prexasertib] + CN(C)CCCOc1ccc(-c2ccc3ncc4c(c3c2)n(C2CCOCC2)c(=O)n4C)cn1 [AZD0156] (first compound max 1 µM, 7x7, partner max 1 µM)	SLVL (B-Cell Non-Hodgkin's Lymphoma)	Bliss excess	0.0036
COc1nnc2ccc(N3CCC(c4ccc(OCCN5CCN(C)C(=O)[C@H]5C)cc4)CC3)nn12 [AZD5153] + Cn1cnc2c(F)c(Nc3ccc(Br)cc3Cl)c(C(=O)NOCCO)cc21 [Selumetinib] (first compound max 1 µM, 7x7, partner max 10 µM)	SLVL (B-Cell Non-Hodgkin's Lymphoma)	Bliss excess	-0.0385

Each recorded value in this set is attributed to the supplement of paper PMC11061612.
